The reader will find reported kon values listed item by item below.
Target: T1, human GREM1 (hGREM1-His; SEQ ID NO: 595) (human, UniProt O60565 25-184)
T1 construct: also called biotin-hGREM1-His; recombinant human GREM1 protein
T1 sequence: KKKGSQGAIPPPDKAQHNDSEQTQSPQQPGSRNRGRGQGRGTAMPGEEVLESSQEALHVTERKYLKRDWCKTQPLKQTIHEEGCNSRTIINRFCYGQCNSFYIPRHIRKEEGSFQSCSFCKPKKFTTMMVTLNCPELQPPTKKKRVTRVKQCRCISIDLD
Assay: SPR, Biacore T200, 25 C, mAb captured, hGREM1-His injected;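 note: Heparin-supplemented HBS-EP+ used as running buffer, association and dissociation phases followed, Kd computed as koff divided by kon and half-life derived from koff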
// note: answer is a bare numeric in M⁻¹ s⁻¹

H4H6269P (antibody, human IgG4, V domains shown, H4H prefix = human IgG4 Fc) VH: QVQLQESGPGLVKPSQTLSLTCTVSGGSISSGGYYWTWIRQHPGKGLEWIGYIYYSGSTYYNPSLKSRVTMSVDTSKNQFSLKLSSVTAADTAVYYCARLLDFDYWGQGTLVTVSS VL: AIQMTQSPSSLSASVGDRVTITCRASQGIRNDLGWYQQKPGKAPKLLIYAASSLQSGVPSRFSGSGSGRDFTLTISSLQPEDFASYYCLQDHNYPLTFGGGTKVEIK : 101000

Attention now turns to another entry.
## Input Fill in: kon of H1M2907N (antibody, V domains shown, H1M prefix marks the Fc (chimeric, mouse constant domains)) VH: QVQLVESGGGVVQPGRSLRLSCAASGFTFSSYGMHWVRQAPGKGLEWVAIIWNDGSNKYYVDSVKGRFTISRANSKNTLYLQMNSLRAEDTAVYYCARDGLEPDAFDIWGQGTMVTVSS VL: EIVLTQSPATLSLSPGERATLSCRASQSVSSFLAWYQQKPGQAPRLLIYDASNRATGIPARFSGSGSGTDFTLTISSLEPEDFAVYYCQQRSNWPPYTFGQGTKLEIK is ___
## Output 62000
